Papp at 5 h, 0.5 mM reference
assay: PAMPA, intestinal (GI) permeability; conditions: PAMPA, pH 7.4
value-kind: Papp at 5 h, 0.5 mM (×10⁻⁶ cm/s)

- molecule: "Fc1ccc(CCn2ncc3c(Nc4cccc(Cl)c4)nc(SCCN4CCOCC4)nc32)cc1 [drawing 171]"
  value-kind: "Papp at 5 h, 0.5 mM"
  value-observed: 2.15
- molecule: "CN1CCN(CCOC(=O)N(Cc2ccccc2Cl)c2ncnc3c2cnn3CC(Cl)c2ccc(Br)cc2)CC1 (stereo not shown) [proSi221]"
  value-kind: "Papp at 5 h, 0.5 mM"
  value-observed: 2.38
- molecule: "CSc1nc(Nc2cccc(Cl)c2)c2cnn(CC(Cl)c3ccccc3)c2n1 (stereo not shown) [Si83]"
  value-kind: "Papp at 5 h, 0.5 mM"
  value-observed: 0.26
- molecule: "CSc1nc(N(C(=O)OCCN2CCN(C)CC2)c2cccc(Cl)c2)c2cnn(CC(Cl)c3ccccc3)c2n1 (stereo not shown) [proSi83]"
  value-kind: "Papp at 5 h, 0.5 mM"
  value-observed: 4.95
- molecule: "CN1CCN(CCOC(=O)N(Cc2ccccc2)c2ncnc3c2cnn3CC(Cl)c2ccccc2)CC1 (stereo not shown) [proS13]"
  value-kind: "Papp at 5 h, 0.5 mM"
  value-observed: 6.7
- molecule: "CSc1nc(NCCc2ccccc2)c2cnn(CC(Cl)c3ccccc3)c2n1 (stereo not shown) [Si35]"
  value-kind: "Papp at 5 h, 0.5 mM"
  value-observed: 7.4
- molecule: "CN1CCN(CCOC(=O)N(c2cccc(Br)c2)c2nc(SCCN3CCOCC3)nc3c2cnn3CC(Cl)c2ccccc2)CC1 (stereo not shown) [proSi306]"
  value-kind: "Papp at 5 h, 0.5 mM"
  value-observed: 2.13
- molecule: "CSc1nc(N(C(=O)OCCN2CCN(C)CC2)c2cccc(Cl)c2)c2cnn(CCc3ccccc3)c2n1 [proSi214]"
  value-kind: "Papp at 5 h, 0.5 mM"
  value-observed: 4.69
- molecule: "CSc1nc(N(C(=O)OCCN2CCN(C)CC2)c2cccc(Br)c2)c2cnn(CC(C)c3ccccc3)c2n1 (stereo not shown) [proSi278 (A)]"
  value-kind: "Papp at 5 h, 0.5 mM"
  value-observed: 2.11
- molecule: "CSc1nc(N(CCc2ccccc2)C(=O)OCCN2CCN(C)CC2)c2cnn(CC(Cl)c3ccccc3)c2n1 (stereo not shown) [proSi35]"
  value-kind: "Papp at 5 h, 0.5 mM"
  value-observed: 0.85
- molecule: "CCC(CN1CCN(C)CC1)OC(=O)N(c1cccc(Br)c1)c1nc(SC)nc2c1cnn2CC(C)c1ccccc1 (stereo not shown) [proSi278 (C)]"
  value-kind: "Papp at 5 h, 0.5 mM"
  value-observed: 1.45
- molecule: "CN1CCN(CCOC(=O)N(c2ccccc2)c2ncnc3c2cnn3CC(Cl)c2ccc(Br)cc2)CC1 (stereo not shown) [proSi223]"
  value-kind: "Papp at 5 h, 0.5 mM"
  value-observed: 9.91
- molecule: "CSc1nc(N(C(=O)OC(C)CN2CCN(C)CC2)c2cccc(Br)c2)c2cnn(CC(C)c3ccccc3)c2n1 (stereo not shown) [proSi278 (B)]"
  value-kind: "Papp at 5 h, 0.5 mM"
  value-observed: 2.15

====

log10(Ki) reference
target: recombinant Fyn (Homo sapiens); assay: Enzymatic assay on isolated Fyn kinase; conditions: read-out: Enzymatic Data (Ki, μM) Fyn
Sequence (P06241 whole entry, looked up): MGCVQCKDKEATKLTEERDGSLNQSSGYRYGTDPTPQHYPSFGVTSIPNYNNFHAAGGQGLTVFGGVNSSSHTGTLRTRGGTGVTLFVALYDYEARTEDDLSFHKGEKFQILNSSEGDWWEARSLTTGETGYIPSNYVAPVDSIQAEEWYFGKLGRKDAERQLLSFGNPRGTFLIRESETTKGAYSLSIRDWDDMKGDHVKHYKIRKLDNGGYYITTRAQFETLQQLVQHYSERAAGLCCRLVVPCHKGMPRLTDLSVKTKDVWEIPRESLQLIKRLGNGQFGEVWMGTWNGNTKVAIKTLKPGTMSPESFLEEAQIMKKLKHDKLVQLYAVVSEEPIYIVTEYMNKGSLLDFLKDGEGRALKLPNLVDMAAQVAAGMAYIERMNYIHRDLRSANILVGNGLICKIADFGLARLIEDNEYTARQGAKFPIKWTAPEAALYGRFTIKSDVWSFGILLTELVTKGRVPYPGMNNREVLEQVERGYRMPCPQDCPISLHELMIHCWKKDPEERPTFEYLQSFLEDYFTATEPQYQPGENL
value-kind: log10(Ki) (log10 of the value in µM)

- compound: "Nc1ncnc2c1c(-c1ccc(F)cc1)nn2CC(Cl)c1ccccc1 (stereo not shown) [Si310]"
  log10(Ki): -0.44
- compound: "Fc1ccc(CNc2nc(SCCN3CCOCC3)nc3c2cnn3CC(Cl)c2ccccc2)cc1 (stereo not shown) [drawing 193]"
  log10(Ki): 1.19
- compound: "CSc1nc(NCCc2cccc(Cl)c2)c2cnn(/C=C/c3ccccc3)c2n1 [drawing 198]"
  log10(Ki): 1.20
- compound: "CC(Cn1nc(-c2ccc3[nH]ccc3c2)c2c(N)ncnc21)c1ccccc1 (stereo not shown)"
  log10(Ki): 0.21
- compound: "COc1ccc(-c2nn(CC(Cl)c3ccccc3)c3ncnc(N)c23)cc1 (stereo not shown)"
  log10(Ki): 0.17
- compound: "CCCNc1nc(SCCN2CCOCC2)nc2c1cnn2CC(Cl)c1ccccc1 (stereo not shown) [drawing 192]"
  log10(Ki): 0.91
- compound: "ClC(Cn1ncc2c(NCc3ccccc3)nc(Cc3ccccc3)nc21)c1ccccc1 (stereo not shown) [drawing 200]"
  log10(Ki): 1.11

Where do these numbers come from? They come from patent US20180186796A1.
